Molecular target: c-Cbl (Homo sapiens (Human), UniProt P22681)
Sequence (P22681 47-435): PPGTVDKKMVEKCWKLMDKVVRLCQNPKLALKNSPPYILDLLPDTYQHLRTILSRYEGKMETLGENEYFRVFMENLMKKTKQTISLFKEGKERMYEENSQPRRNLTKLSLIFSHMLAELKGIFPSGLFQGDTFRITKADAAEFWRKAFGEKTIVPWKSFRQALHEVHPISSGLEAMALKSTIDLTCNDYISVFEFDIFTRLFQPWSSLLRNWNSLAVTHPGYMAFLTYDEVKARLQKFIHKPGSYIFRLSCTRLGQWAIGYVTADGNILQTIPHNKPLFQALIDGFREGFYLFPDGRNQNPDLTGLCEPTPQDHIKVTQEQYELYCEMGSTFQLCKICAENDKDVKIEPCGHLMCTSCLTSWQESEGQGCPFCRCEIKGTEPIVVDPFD
Assay: C-Cbl LCK Ub TR-FRET assay (C-cbl Lck HTRF)
Type: biochemical
pIC50: −log10 of the molar value.
# label = yes (1) if pIC50 >= 6 else no (0)

Evaluate "CO[C@H]1C[C@](c2cccc(N3Cc4c(cc(CN[C@@H](C)C5CCC5)cc4C(F)(F)F)C3=O)c2)(c2nncn2C)C1" : pIC50 at minimum 6?
yes (1)

Param item: C[C@@H](NC1CCC1)c1cc2c(c(C(F)(F)F)c1)CN(c1cccc(C3(c4nncn4C)CC(F)(F)C3)c1)C2=O (single isomer, unassigned)
yes (1)

Param item: CC(=O)N(C)[C@H](c1cccc(N2Cc3c(cc(CNC4(C)CCC4)cc3C(F)(F)F)C2=O)c1)c1nncn1C (single isomer, unassigned)
no (0)

Param item: "Cn1cnnc1C1(c2cc(C3CC3)nc(N3Cc4c(cc(CNC5(C)CCC5)cc4C(F)(F)F)C3=O)c2)CC(F)(F)C1"
yes (1)

Param item: CC(C)[C@H]1CN(C)CCN1Cc1cc(Cl)c2c(c1)C(=O)N(c1cccc(C3(c4nncn4C)CC4(COC4)C3)c1)C2 (single isomer, unassigned)
yes (1)

Param item: "Cn1cnnc1[C@]1(c2cccc(N3Cc4c(cc(CNC5(C)CCC5)cc4C(F)(F)F)C3=O)c2)C[C@](F)(CF)C1"
yes (1)

Param item: "Cn1cnnc1[C@](C)(O)c1cccc(N2Cc3c(cc(CNC4(C)CCC4)cc3C(F)(F)F)C2=O)c1"
no (0)

Param item: Cn1cnnc1[C@](O)(c1ccccc1)c1cccc(N2Cc3c(Cl)cc(CNC4(C)CCC4)cc3C2=O)c1 (single isomer, unassigned)
no (0)

Param item: COC1CC([C@H](c2cccc(N3Cc4c(cc(CNC5(C)CCC5)cc4C(F)(F)F)C3=O)c2)c2nncn2C)C1 (single isomer, unassigned) [Compound 132]
no (0)

Param item: C[C@@H](NC1(C)CCC1)c1cc(Cl)c2c(c1)C(=O)N(c1cccc([C@]3(c4nncn4C)C[C@H](F)C3)c1)C2 (single isomer, unassigned)
yes (1)

Param item: C[C@H](NC1(C)CCC1)c1cc2c(c(C(F)F)c1)CN(c1cccc([C@@H](c3nncn3C)C3COC3)c1)C2=O (single isomer, unassigned)
no (0)

Param item: CC[C@@H](NC1(C)CCC1)c1cc2c(c(C(F)(F)F)c1)CN(c1cccc([C@@H](c3nncn3C)C3COC3)c1)C2=O (single isomer, unassigned)
no (0)

Param item: Cn1cnnc1[C@@](O)(c1cccc(N2Cc3c(cc(CNC4(C)CCC4)cc3C(F)(F)F)C2=O)c1)C1CCC1 (single isomer, unassigned)
yes (1)

Param item: Cn1cnnc1[C@H](c1cccc(N2Cc3c(cc(CNC4(C)CCC4)cc3C(F)(F)F)C2=O)c1)C1CC(=O)C1 (single isomer, unassigned)
yes (1)

Param item: Cn1cnnc1[C@@H](c1cccc(N2Cc3c(cc(CNC4(C)CCC4)cc3C(F)(F)F)C2=O)c1)n1ccnc1 (single isomer, unassigned)
no (0)

Param item: "Cn1cnnc1[C@]1(c2cccc(N3Cc4c(cc(CNC5(C)CCC5)cc4C(F)F)C3=O)c2)C[C@@H](Cl)C1"
yes (1)

Param item: Cc1cc([C@H](c2nncn2C)C2COC2)cc(N2Cc3c(cc(CNC4(C)CCC4)cc3C(F)(F)F)C2=O)c1 (single isomer, unassigned)
no (0)

Param item: "Cn1cnnc1[C@]1(c2cccc(N3Cc4c(cc(CNC5(C)CCC5)cc4C(F)(F)F)C3=O)c2)C[C@](C)(O)C1"
yes (1)

Param item: Cn1cnnc1C(F)(c1cccc(N2Cc3c(cc(CNC4(C)CCC4)cc3C(F)(F)F)C2=O)c1)C1COC1 (single isomer, unassigned)
yes (1)

Param item: "Cn1cnnc1[C@]1(c2cccc(N3Cc4c(cc(CNC5(C)CCC5)cc4C(F)(F)F)C3=O)c2)C[C@H](CO)C1.O=CO"
yes (1)

Param item: Cn1cnnc1C1(c2cccc(N3Cc4c(cc([C@@H](O)CO)cc4C(F)(F)F)C3=O)c2)CCC1 (single isomer, unassigned)
yes (1)

====

Please go through the items and note down their pIC50.
Target: Cbl-b (Homo sapiens (Human), UniProt Q13191)
Sequence (Q13191 40-426): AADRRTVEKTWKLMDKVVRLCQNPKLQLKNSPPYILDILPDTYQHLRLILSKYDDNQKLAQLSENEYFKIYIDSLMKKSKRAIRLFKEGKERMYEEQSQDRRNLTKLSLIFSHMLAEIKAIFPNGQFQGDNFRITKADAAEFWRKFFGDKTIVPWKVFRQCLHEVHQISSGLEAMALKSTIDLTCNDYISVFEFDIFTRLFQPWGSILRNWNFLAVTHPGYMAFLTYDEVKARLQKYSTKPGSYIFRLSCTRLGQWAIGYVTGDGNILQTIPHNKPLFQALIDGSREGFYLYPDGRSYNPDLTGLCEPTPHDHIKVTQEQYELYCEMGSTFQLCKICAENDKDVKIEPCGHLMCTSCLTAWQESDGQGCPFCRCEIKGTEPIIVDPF
Assay: Cbl-b LCK Ub TR-FRET assay (Cbl-b Lck HTRF)
Type: biochemical
Settings: Cbl-b LCK Ub TR-FRET
Hey, just a heads up that pIC50 is the negative log base 10 of the concentration in molar.

Given CO[C@H]1C[C@](c2cc(NC3CCCC3)nc(N3Cc4c(cc(CNC5(C)CCC5)cc4C(F)(F)F)C3=O)c2)(c2nncn2C)C1 [Compound 9] , state its recorded pIC50.
7.96

Param item: "C[C@H]1C[C@@](c2cccc(N3Cc4c(cc(CNC5(C)CCC5)cc4C(F)(F)F)C3=O)c2)(c2nncn2C)O1"
7.17

Param item: "Cn1cnnc1C1(c2cccc(N3Cc4c(cc(CNC5(C)CCC5)cc4C(F)(F)F)C3=O)c2)CC1"
7.09

Param item: COC1CC2(C1)CC(c1cccc(N3Cc4c(cc(CNC5(C)CCC5)cc4C(F)(F)F)C3=O)c1)(c1nncn1C)C2 (centres unmarked)
6.64

Param item: CO[C@H]1C[C@@H]([C@@H](c2cccc(N3Cc4c(cc(CN5CCN(C)C[C@@H]5C(C)C)cc4C(F)(F)F)C3=O)c2)c2nncn2C)C1 (stereo in doubt) [Compound 13]
6.70

Param item: "Cn1cnnc1C1(c2cccc(N3Cc4c(cc(CNC5(C)CCC5)cc4C(F)(F)F)C3=O)c2)CCC1"
8.18

Param item: "Cn1cnnc1[C@]1(c2cc(OC3CCCC3)nc(N3Cc4c(cc(CNC5(C)CCC5)cc4C(F)(F)F)C3=O)c2)C[C@@H](C)C1"
8.17

Param item: CC1=C[C@@](c2cc(NC3CCC3)nc(N3Cc4c(cc(CN5CCN(C)C[C@@H]5C(C)C)cc4C(F)(F)F)C3=O)c2)(c2nncn2C)C1 (single isomer, unassigned)
7.85

Param item: CO[C@H]1C[C@@](c2cccc(N3Cc4c(cc(CN5CCN(C)C[C@@H]5C(C)C)cc4C(F)(F)F)C3=O)c2)(c2nncn2C)C1 (single isomer, unassigned)
7.06

Param item: CO[C@H]1C[C@@](c2cccc(N3Cc4c(cc([C@@H](C)NC5(C)CCC5)cc4C(F)(F)F)C3=O)c2)(c2nncn2C)C1 (single isomer, unassigned)
8.02

Param item: "CCOc1cc(N2Cc3c(cc(CNC4(C)CCC4)cc3C(F)(F)F)C2=O)cc([C@]2(c3nncn3C)C[C@@H](C)C2)c1"
8.01

Param item: "Cn1cnnc1[C@]1(c2cc(OC3CCCC3)cc(N3Cc4c(cc(CNC5(C)CCC5)cc4C(F)(F)F)C3=O)c2)C[C@@H](C)C1"
7.44

Param item: "CC(=O)N1CC2(C1)CC(c1cccc(N3Cc4c(cc(CNC5(C)CCC5)cc4C(F)(F)F)C3=O)c1)(c1nncn1C)C2"
5.28

Param item: CO[C@H]1C[C@](c2cccc(N3Cc4c(cc([C@@H](N)C(C)(C)C)cc4C(F)(F)F)C3=O)c2)(c2nncn2C)C1 (single isomer, unassigned)
8.09

Param item: "Cn1cnnc1[C@@H](c1cccc(N2Cc3c(cc(CNC4(C)CCC4)cc3C(F)(F)F)C2=O)c1)C1CCOCC1"
4.89

Param item: Cn1cnnc1[C@H](c1cccc(N2Cc3c(cc(CNC4(C)CCC4)cc3C(F)(F)F)C2=O)c1)[C@H]1C[C@@H](C#N)C1 (single isomer, unassigned)
8.12

Param item: Cn1cnnc1[C@H](c1cccc(N2Cc3c(Cl)cc(CNC4(C)CCC4)cc3C2=O)c1)[C@H]1C[C@@H](F)C1 (single isomer, unassigned)
7.92

Param item: "CC(C)[C@H]1CN(C)CCN1Cc1cc2c(c(C(F)(F)F)c1)CN(c1cc([C@]3(c4nncn4C)C[C@@H](C)C3)cc(NC3CCCC3)n1)C2=O"
7.82

Param item: "CCOc1cc(N2Cc3c(cc(CNC4(C)CCC4)cc3C(F)(F)F)C2=O)cc([C@]2(c3nncn3C)C[C@H](C)C2)c1"
8.14

Param item: Cn1cnnc1C(c1cccc(N2Cc3c(cc(CNC4(C)CCC4)cc3C(F)(F)F)C2=O)c1)[C@H]1C[C@@H](Cl)C1 (single isomer, unassigned) [Compound 354]
7.15

Param item: "COC[C@H]1C[C@](c2cccc(N3Cc4c(cc(CNC5(C)CCC5)cc4C(F)(F)F)C3=O)c2)(c2nncn2C)C1"
7.89

Param item: CC(C)[C@H]1CN(C)CCN1Cc1cc2c(c(C(F)(F)F)c1)CN(c1cccc([C@]3(c4nncn4C)C[C@H](C#N)C3)c1)C2=O (single isomer, unassigned)
8.10

====

Target: Human Cbl-b (residues 40-426) (Homo sapiens (Human), UniProt Q13191)
Assay: Cbl-b SPR assay
Type: binding
Conditions: C-cbl SPR Kd vs Cbl-b SPR Kd
Label MET when Fold of selectivity is strictly below 5 ×; otherwise label NOT MET.

Please let me know if CO[C@H]1C[C@](c2cccc(N3Cc4c(cc(CNCCC5CCC5(F)F)cc4C(F)(F)F)C3=O)c2)(c2nncn2C)C1 (stereo partly drawn) shows Fold of selectivity below 5 ×.
NOT MET

Param item: "C[C@@H](NC1(C)CCC1)c1cc2c(c(C(F)(F)F)c1)CN(c1cccc([C@H](c3nncn3C)C3COC3)c1)C2=O"
MET

Param item: "Cn1cnnc1[C@]1(c2cccc(N3Cc4c(cc(CNC5(C)CCC5)cc4C(F)(F)F)C3=O)c2)C[C@@H](O)C1"
MET

Param item: "Cn1cnnc1[C@]1(c2cccc(N3Cc4c(cc(CNC5(C)CCC5)cc4C(F)(F)F)C3=O)c2)C[C@@H](OC2CC2)C1"
NOT MET

Param item: "CO[C@H]1C[C@](c2cccc(N3Cc4c(cc(CNCC5(CF)CC5)cc4C(F)(F)F)C3=O)c2)(c2nncn2C)C1"
NOT MET
